The measurements presented in this section are drawn from PubChem BioAssay (NCI).

- Test system: NCI-H322M lung
- ASSAY_COMMENT: NCI-60 one-dose screen, 48 h (100 = growth as untreated, 0 = no growth, -100 = all killed)
- CONDITION: 10 µM
This is part of a sample that, as a whole, favours compounds with a hit. Of some 83,000 tested, about 20% had one in any assay.
ATTRIBUTE_MEASURED: growth (%)
Give bare numbers, in %.

Consider the worked cases shown below.
{"columns": ["COMPOUND", "ATTRIBUTE_MEASURED", "MEASUREMENT_UNIT", "ENDPOINT_VALUE"],
 "data": [
  ["Oc1ccc(/C=C2\\CCCc3cc4ccc(O)cc4[o+]c32)c(O)c1", "growth", "%", 63.3],
  ["O=C(CNc1nc(-c2ccccc2)cs1)Nc1ccc(Br)cc1", "growth", "%", -99.5]
]}

Hey, can you go through the list below and give me growth for every item?
1. COc1ccc(CN2[C@@H](C(=O)NCc3ccc(C(=O)NO)cc3)Cc3c([nH]c4ccccc34)[C@@H]2C)cc1
2. CO[C@@H]1CSSC1Cn1nc(-c2ccc(Oc3ccccc3)cc2)c2c(N)ncnc21 (stereo partly drawn)
3. O=c1c2ccccc2nc(COc2ccccc2)n1/N=C/c1ccc(F)cc1
4. O=C(Nc1ccc(Cl)c(C(F)(F)F)c1)c1cncc(C#Cc2cnc3ccc(N4CCOCC4)nn23)c1
5. O=C(Nc1ccncc1)c1ccc(-n2c(=O)[nH]c3ccccc3c2=O)cc1
6. COc1ccccc1[C@H]1C(C(=O)c2ccc(Cl)cc2)C2(N[C@@H]1c1ccccc1)C(=O)Nc1ccc(Cl)cc12 (stereo partly drawn)
7. COC(=O)C[C@](O)(CCCC(C)(C)O)C(=O)O[C@H]1C(OC)=C[C@@]23CCC(=O)N2CCc2cc4c(cc2[C@@H]13)OCO4

[30.5, 63, 96.6, 6.5, 97.6, 32.9, 112]

Hey, can you go through the list below and give me growth for every item?
1. O=C(CSc1nnc(-c2c[nH]c3ccccc23)n1-c1ccccc1)Nc1ccc(C(=O)/C=C/c2cccc([N+](=O)[O-])c2)cc1
2. O=C(CSc1nnc(-c2c[nH]c3ccccc23)n1-c1ccccc1)Nc1ccc(C(=O)/C=C/c2ccc(Br)cc2)cc1
3. Cc1ccc(CSc2nc(Cl)c(C#N)c(-c3ccc(F)cc3)n2)cc1
4. CN1C(=O)N(C)C2SC(N/N=C/c3ccc(F)cc3)=NC21 (stereo not drawn)

1: 100; 2: 92.1; 3: 86.7; 4: 97.4

Hey, can you go through the list below and give me growth for every item?
1. CCCSc1nc(NC2CC2)c(C#N)c(-c2ccc(OC)cc2)n1
2. CC(=C(c1ccc(OCCN2CCCCC2)cc1)c1ccc(OCCN2CCCCC2)cc1)c1ccccc1

[89.3, 60.9]

Hey, can you go through the list below and give me growth for every item?
1. CCCn1c(=O)c2[nH]c(-c3ccc(OCc4nc5ccc(F)cc5[nH]4)cc3)nc2n(CCC)c1=O
2. O=C(CSc1nnc(-c2c[nH]c3ccccc23)n1-c1ccccc1)Nc1ccc(C(=O)/C=C/c2ccc(Cl)cc2)cc1
3. O=C1Nc2ccc(Cl)cc2/C1=C/c1cccc(OCc2ccccc2)c1

[23.8, 89, 44.6]
